quantity: melting point

{"compound": "CC(C)CCC(O)C(CC1CCCCC1)NC(=O)C(Cc1c[nH]cn1)N(C)C(=O)C(Cc1ccccc1)OC(=O)N(C)CCN(C)C(=O)C(C)C (stereo not drawn)", "valueReported": "68 to 72 °C"}
{"compound": "CC1=NNC(=O)N(N=Cc2cccnc2C)C1", "valueReported": "226 to 229 °C"}

Input O=C1CCC2=C1C(c1ccc(Br)c(Br)c1)C1=C(CCS1)N2 (stereo not drawn) . Output melting point: > 260 °C

Value of melting point reported for the compound "Nc1ccc2c(c1)COc1cc(Nc3ccc(C(F)(F)F)cc3N)ccc1C2=O" is 93.9 °C

"CC(C)COc1ccccc1-c1ncc(C(N)=O)c(=O)[nH]1" yielded melting point of 230 to 231 °C

Item: "COc1ccc(-c2n[nH]c3c2sc2ccccc23)cc1" | melting point: 185 to 187 °C

// field: melting point; key: "CCCc1c(C(=O)C(C)C)c2ccc(C(=O)O)cc2n1Cc1ccccc1I" ; value = 210 °C

For record "COc1ccc2c(Cc3c(Cl)cncc3Cl)nnc(Oc3ccccc3)c2c1" the listed melting point is 130 to 132 °C

---

Each entry below carries its reported melting point.

Example entries and their recorded answers appear below.
{"compound": "COc1ccc2c(Nc3cccc(CCO)c3)c3ccccc3nc2c1", "valueReported": "186 to 188 °C"}
{"compound": "CC[C@H](C)[C@H](OCc1ccccc1)[C@H]1[C@H]([N+](=O)[O-])[C@H](C2CC2)N[C@@H]1C(=O)O", "valueReported": "159 to 161 °C"}
{"compound": "CC(C)(C)NS(=O)(=O)c1cccc2c1CSC2=O", "valueReported": "121 to 124 °C"}
{"compound": "COC(=O)NCCCCC(NC(=O)OC)C(=O)OC (stereo not given)", "valueReported": "187 to 189 °C"}
{"compound": "COc1ccc(C(=O)c2ccccc2Cl)c(Cl)c1Cl", "valueReported": "117 to 120 °C"}

Form: compound = "COC(=O)c1cc(OC)c2ccccc2c1OC" ; melting point = 48 to 50 °C

So for Cc1ccc(S(=O)(=O)NC(=O)C2C(=O)CC(C(C)C)CC2=O)cc1 (stereo not given) , the logged melting point turned out to be 106 to 108 °C

---

quantity: melting point

The following molecules have reported results that may help.
{"molecule": "CC(=O)NC1CCN(c2c(F)cc([N+](=O)[O-])c(F)c2CO)C1 (configuration not stated)", "melting point": "142 to 144 °C"}
{"molecule": "CNCc1csc(-c2cccc(C3=Nc4cc(N(C)C)c(Cl)cc4NC(=O)C3)c2)n1", "melting point": "129 to 130 °C"}
{"molecule": "Cc1cc(CNC2CCCN(C(=O)c3ccc(Nc4nccc(Nc5ccc(F)cc5)n4)cc3)C2)no1 (configuration not stated)", "melting point": "190 to 191 °C"}

Just so you know, measured melting point for "O=C(Nc1cc(-c2nc(Cc3ccccc3)no2)ccn1)c1ccccc1" came out at 150 to 151 °C

Given item "CC(=O)Nc1ccc(-c2c[nH]c(=O)cn2)cc1" , the value recorded as its melting point is 268 to 275 °C

The reported melting point of the molecule "CCCCc1oc2ccccc2c1C(=O)N(Cc1ccccc1)Cc1ccc(-c2ccc(OC)c(Br)c2)cc1" was 145 to 148 °C

// melting point lookup, molecule = "CCCCCCCCCCCCCCOc1ccc(C(=O)N(CC(=O)O)CC(=O)O)cc1OCCCCCCCCCCCCCC" , result: 84 to 87 °C

The reported melting point of the molecule Cc1ncoc1C(O)c1ccco1 (configuration not stated) was 52 to 54 °C

Record O=C1N(Cc2cccc(OC(F)(F)F)c2)c2ccccc2C12COc1cc3c(cc12)OCO3 (configuration not stated) . Reported melting point: 88 to 91 °C

Measured melting point, "CCCCCCCCOc1c(Cl)c(Sc2ccccc2N)c(OCCCCCCCC)c2c1C(=N)NC2=N" : 97 to 99 °C

Noted for "CC[C@@H](Cc1ccc(OC)c(C(=O)NCc2ccccc2Oc2ccc(F)cc2)c1)C(=O)O" : its melting point reads 95 to 96 °C

Looking up CCc1nc2ccccn2c1S(N)(=O)=S (configuration not stated) , I found its melting point recorded as 169 to 171 °C
